tested on: Burkitt's lymphoma cells (Ramos); test: In vitro cytotoxicity, CellTiter-Glo 96 h, Ramos; conditions: Homo sapiens, read-out: Cytotoxic potency as free drug, IC50, Ramos
quantity: IC50

{"columns": ["compound", "IC50"],
 "data": [
  ["CC[C@@]1(O)C(=O)OCc2c1cc1n(c2=O)Cc2c-1nc1cc3c(cc1c2C1CC1)OCO3 [Compound 6m]", "0.1 to 1 nM"],
  ["CC[C@@]1(O)C(=O)OCc2c1cc1n(c2=O)Cc2c-1nc1cc3c(cc1c2C1CCCCCC1)OCO3 [Compound 6j]", "0.1 to 1 nM"],
  ["CC[C@@]1(O)C(=O)OCc2c1cc1n(c2=O)Cc2c-1nc1cc3c(cc1c2CNC(C)C)OCO3 [Compound 5c]", "0.1 to 1 nM"],
  ["CC[C@@]1(O)C(=O)OCc2c1cc1n(c2=O)Cc2c-1nc1cc3c(cc1c2CNC(=O)CO)OCO3 [Compound 4a]", "10 to 100 nM"],
  ["CC[C@@]1(O)C(=O)OCc2c1cc1n(c2=O)Cc2c-1nc1cc3c(cc1c2C)OCO3 [Compound 6p]", "0.1 to 1 nM"],
  ["CC[C@@]1(O)C(=O)OCc2c1cc1n(c2=O)Cc2c-1nc1cc3c(cc1c2CC(C)(C)C)OCO3 [Compound 6n]", "1 to 10 nM"],
  ["CC[C@@]1(O)C(=O)OCc2c1cc1n(c2=O)Cc2c-1nc1cc3c(cc1c2CNC(=O)CN)OCO3 [Compound 4b]", "10 to 100 nM"],
  ["CCC(C)c1c2c(nc3cc4c(cc13)OCO4)-c1cc3c(c(=O)n1C2)COC(=O)[C@]3(O)CC (some centres unmarked) [Compound 6b]", "1 to 10 nM"],
  ["CC[C@@]1(O)C(=O)OCc2c1cc1n(c2=O)Cc2c-1nc1cc(F)c(C)c3c1c2[C@@H](N)CC3 [Compound 8b]", "0.1 to 1 nM"],
  ["CC[C@@]1(O)C(=O)OCc2c1cc1n(c2=O)Cc2c-1nc1cc3c(cc1c2CNCCc1ccccc1)OCO3 [Compound 5z]", "1 to 10 nM"]
]}

Exercise: // lookup IC50 for CC[C@@]1(O)C(=O)OCc2c1cc1n(c2=O)Cc2cc3cc4c(cc3nc2-1)OCO4 [Compound 6o]
Key: 0.1 to 1 nM

====

Each record here notes measured IC50.
tested on: multiple myeloma cells (MM.1R); experiment: In vitro cytotoxicity, CellTiter-Glo 96 h, MM.1R; conditions: read-out: Cytotoxic potency (IC50 class), MM.1R

{"columns": ["chem smiles", "IC50"],
 "data": [
  ["CC[C@@]1(O)C(=O)OCc2c1cc1n(c2=O)Cc2c-1nc1cc3c(cc1c2CNCCOCCOCCN)OCO3", "1 to 10 nM"],
  ["CC[C@@]1(O)C(=O)OCc2c1cc1n(c2=O)Cc2c-1nc1cc3c(cc1c2-c1ccccc1)OCO3", "1 to 10 nM"],
  ["CC[C@@]1(O)C(=O)OCc2c1cc1n(c2=O)Cc2c-1nc1cc3c(cc1c2CNCC1CCNCC1)OCO3", "10 to 100 nM"]
]}

Now look at this entry.
Exercise: // lookup IC50 for `CC[C@@]1(O)C(=O)OCc2c1cc1n(c2=O)Cc2c-1nc1cc3c(cc1c2CN)OCO3`
Key: 1 to 10 nM
